Test system: NCI-H23 lung
Assay: NCI tumour cell line growth inhibition, 48 h
Experimental Endpoint: TGI

Consider the reported TGI for these compounds:
CS(=O)(=O)c1ccc(N/N=C/c2c(-c3ccc(S(C)(=O)=O)cc3)[nH]c3ccc(F)cc23)cc1 = > 50 µM
COc1cc2[nH]c(C(=O)c3cc(OC)c(OC)c(OC)c3)c(N)c2cc1C#CCO = > 100 µM
C#C[C@@]1(O)[C@@H](CO)O[C@@H](n2cc(Cl)c3c(N)ncnc32)[C@@H]1O = 0.957 µM
CCCC(OCC)(OCC)OCC = > 100 µM
O=C(O)/C(Cl)=C(\Cl)Nc1cccc(C(F)(F)F)c1 = > 100 µM

Go through the list and state TGI for each entry.
1. CC12CN(CC[N+](C)(C)C)CC1(C)C1CCC2O1 (stereo not given)
2. CCOC(=O)/C(C#N)=C(/NS(=O)(=O)c1cc(C)c(Cl)cc1[S-])[n+]1ccc(N(C)C)cc1
3. CC(=O)[O-].CC(=O)[O-].[Mn+2].c1ccc(/C(=N\Nc2ccccn2)c2ccccn2)cc1

result:
1: > 100 µM; 2: > 100 µM; 3: 16.7 µM

Go through the list and state TGI for each entry.
1. CC(C#N)c1cn(S(=O)(=O)c2ccccc2)c2ccccc12 (stereo not given)
2. COc1cc(C(=O)C/C(CCC(=O)Nc2ccccc2[N+](=O)[O-])=N\NC(=O)C(N)=O)ccc1O
3. O=C1O/C(=C\c2ccc(O)c(Br)c2)C(c2ccc(O)cc2)=C1Cl
4. N#CN=Nc1cc(Cl)c(N=NC#N)cc1Cl
5. CC(C)[Si](OC12CCC(CC1O)CC2C(=O)O)(C(C)C)C(C)C (stereo not given)
6. Nc1nc(N)c2nc(CNc3ccc(C(=O)CC(CCC(=O)O)C(=O)O)cc3)cnc2n1 (stereo not given)
7. C=C1C(=O)O[C@@H]2[C@H]1CC[C@H](C)[C@]1(O)CCC(=O)[C@@]21C
8. CCC1(O)CC(OC2CC(N(C)C)C(OC3CC(O)C(OC4OC(C)C(=O)C=C4N)C(C)O3)C(C)O2)c2c(O)c3c(c(O)c2C1C(=O)OC)C(=O)c1cccc(O)c1C3=O (stereo not given)

result:
1: > 100 µM; 2: > 100 µM; 3: 61.6 µM; 4: > 100 µM; 5: 34.7 µM; 6: > 100 µM; 7: > 10 µM; 8: 0.036 µM

Go through the list and state TGI for each entry.
1. CC(=O)O[C@H]1CC[C@H]2[C@@H]3CCc4cc(O)c(I)cc4[C@H]3CC[C@]12C
2. CS(=O)(=O)CCNCc1ccc(-c2ccc3ncnc(Nc4ccc(OCc5ccccc5)c(C(F)(F)F)c4)c3c2)o1
3. Cc1cc(Cl)nc(NC(=O)CSc2ccc(Cl)cc2)n1
4. C=C(Cl)C(C)(Cl)CCC(Cl)C(C)(C)Cl (stereo not given)

result:
["27.4 µM", "> 19.4 µM", "> 100 µM", "> 100 µM"]

* * *

What GI50 was measured for each of the following?
Test system: RXF 393 renal
Test: NCI tumour cell line growth inhibition, 48 h

Consider the reported GI50 for these compounds:
CS(=O)(=O)c1ccc(N/N=C/c2c(-c3ccc(S(C)(=O)=O)cc3)[nH]c3ccc(F)cc23)cc1 = 0.904 µM
CCN1C(=O)N(CC)C2C1NN=c1s/c(=C3\C(=O)N(CCC(C)C)c4ccccc43)c(=O)n12 (centres undefined) = 0.738 µM
Nc1ncc(-c2cnn(C3CCNCC3)c2)cc1-c1nc2ccccc2o1 = 0.485 µM
COc1cc(N2CCC(N3CCN(C)CC3)CC2)ccc1Nc1ncc(Cl)c(Nc2ccccc2P(C)(C)=O)n1 = 0.642 µM
COc1ccc(C(=O)/C=C/c2cc3ccccc3[nH]c2=O)cc1 = 19.7 µM

Go through the list and state GI50 for each entry.
1. Nc1ccccc1NC(=O)c1ccc(CSc2nc(N3CCOCC3)c3cccn3n2)cc1
2. O=C1C2CC3C(CC2C(=O)[N]1[Sn]([c]1ccccc1)([c]1ccccc1)[c]1ccccc1)C1(Cl)C(Cl)=C(Cl)C3(Cl)C1(Cl)Cl (centres undefined)
3. COc1cc2c(c(OC)c1OC)-c1ccc([O-])c(=O)cc1[C@@H](NC(C)=O)CC2.COc1cc2c(c(OC)c1OC)-c1ccc([O-])c(=O)cc1[C@@H](NC(C)=O)CC2.[Cu+2]
4. O=c1oc2ccc(Cl)cc2c(=O)n1-c1ccc(Cl)cc1F

result:
1. 0.464 µM
2. 0.0863 µM
3. 3.87 µM
4. 0.512 µM

Provenance of the data: PubChem BioAssay (NCI)
